Catalogue of binders with associated koff
Assayed target: T1, Cynomolgus TCR(AEA41865/AEA41866)-zipper protein (cynomolgus monkey)
T1 construct: also called cyTCR-zipper protein; cynoTCR zipper
T1 TCR alpha: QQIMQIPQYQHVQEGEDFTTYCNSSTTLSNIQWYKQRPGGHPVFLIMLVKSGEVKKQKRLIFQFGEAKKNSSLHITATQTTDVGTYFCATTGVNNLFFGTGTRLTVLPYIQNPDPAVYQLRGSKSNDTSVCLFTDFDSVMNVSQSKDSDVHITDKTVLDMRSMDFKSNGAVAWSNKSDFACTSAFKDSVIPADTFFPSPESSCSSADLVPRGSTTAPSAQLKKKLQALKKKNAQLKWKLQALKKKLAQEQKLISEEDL
T1 TCR beta: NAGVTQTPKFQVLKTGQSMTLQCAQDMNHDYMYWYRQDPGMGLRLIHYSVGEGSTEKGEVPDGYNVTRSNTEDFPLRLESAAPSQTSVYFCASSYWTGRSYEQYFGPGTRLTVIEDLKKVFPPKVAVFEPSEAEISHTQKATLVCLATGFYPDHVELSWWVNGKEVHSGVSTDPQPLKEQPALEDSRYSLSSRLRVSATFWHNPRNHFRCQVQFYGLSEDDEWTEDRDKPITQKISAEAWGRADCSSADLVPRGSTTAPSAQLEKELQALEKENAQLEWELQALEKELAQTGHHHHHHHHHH
Assay remarks: SPR ProteOn off-rate screen
Numeric answer only, unit s⁻¹ assumed.

- Binder: "T017000185 (VHH) VHH: EVQLVESGGGVVQPGGSLRLSCVASGDVHKINFFGWYRQAPGKEREKVAHISIGDQTDYADSAKGRFTISRDESKNMVYLQMNSLRPEDTALYFCRAFSRIYPYDYWGQGTLVTVSS"
  koff / s⁻¹: 0.0114
- Binder: "T017000180 (VHH) VHH: EVQLVESGGGVVQPGGSLRLSCVASQDVHKINFLGWYRQAPGKEREKVAHISIGDQTDYADSAKGRFTISRDESKNMVYLQMNSLRPEDTALYFCRAFSRIYPYDYWGQGTLVTVSS"
  koff / s⁻¹: 0.00998
- Binder: "T017000163 (VHH, also called T017000745) VHH: EVQLVESGGGVVQPGGSLRLSCVASGDVHQINFLGWYRQAPGKEREKVAHISIGDQTDYADSAKGRFTISRDESKNMVYLQMNSLRPEDTALYFCRAFSRIYPYDYWGQGTLVTVSS"
  koff / s⁻¹: 0.00642

**Q:** Any idea what koff was measured for T017000176 (VHH) VHH: EVQLVESGGGVVQPGGSLRLSCVASGDVHKLNFLGWYRQAPGKEREKVAHISIGDQTDYADSAKGRFTISRDESKNMVYLQMNSLRPEDTALYFCRAFSRIYPYDYWGQGTLVTVSS ?
**A:** 0.00791

**Q:** What do you get for T017000196 (VHH) VHH: EVQLVESGGGVVQPGGSLRLSCVASGDVHKIFFLGWYRQAPGKEREKVAHISIGDQTDYADSAKGRFTISRDESKNMVYLQMNSLRPEDTALYFCRAFSRIYPYDYWGQGTLVTVSS ?
**A:** 0.00419
